- Study system: Amine oxidase [flavin-containing] B (Rattus norvegicus)
- Sequence (P19643 whole entry): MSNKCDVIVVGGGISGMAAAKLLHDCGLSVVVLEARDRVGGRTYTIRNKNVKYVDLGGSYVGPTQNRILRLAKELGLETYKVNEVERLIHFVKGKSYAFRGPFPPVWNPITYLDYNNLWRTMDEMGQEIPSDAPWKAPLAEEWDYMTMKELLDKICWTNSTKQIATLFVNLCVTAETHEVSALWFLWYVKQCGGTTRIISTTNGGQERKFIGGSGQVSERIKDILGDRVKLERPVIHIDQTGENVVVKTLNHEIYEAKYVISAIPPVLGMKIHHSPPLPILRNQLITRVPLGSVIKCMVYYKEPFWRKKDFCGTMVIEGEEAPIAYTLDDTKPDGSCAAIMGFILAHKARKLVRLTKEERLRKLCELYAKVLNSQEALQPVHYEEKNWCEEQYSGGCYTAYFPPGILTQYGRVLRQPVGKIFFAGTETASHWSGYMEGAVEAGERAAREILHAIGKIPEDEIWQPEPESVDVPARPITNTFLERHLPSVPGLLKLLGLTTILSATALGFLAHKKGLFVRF
Metric name: IC50 (nM)

Compound	Study system	Measurement unit	IC50
Cc1cc(=O)c2cc(OCc3ccccc3)ccc2o1	Amine oxidase [flavin-containing] B (Rattus norvegicus)	nM	126

(I) Cc1c(C)c2ccc(OCc3cccc(N)c3)cc2oc1=O
(II) c1ccc(COc2ccc3ccccc3c2)cc1
Sort I and II by IC50 descending and give the first. // respond with label for picked entry
II
(II: 2570 nM, I: 34.7 nM)

====

Test system Amine oxidase [flavin-containing] A (Rattus norvegicus), IC50 listed for each of the compounds.
Metric name: IC50 (µM)

O=C1OCc2ccc(OCc3ccccc3)cc21 3.63
Cc1cc(=O)c2cc(OCc3ccccc3)ccc2o1 21.9

(P) O=c1ccoc2cc(OCc3ccccc3)ccc12
(Q) Cc1c(C)c2ccc(OCc3cccc(N)c3)cc2oc1=O
(R) O=c1ccc2cc(OCc3ccccc3)c(O)cc2o1
(S) Cc1ccc(S(=O)(=O)Nc2ccc3c(C)c(C)c(=O)oc3c2)cc1
Sort (4 compounds) by IC50: min first. Give the labels in the order specified.
Q, P, R, S
(Q: 1 µM, P: 16.2 µM, R: 23.4 µM, S: 67.6 µM)

====

- Study system: UniProtKB P19643
pIC50: −log10 of the molar value.
Metric name: pIC50

In the examples that follow, each entry is paired with its recorded pIC50.
Compound	Study system	Metric name	Reported value
c1ccc(COc2ccc3c(c2)OCC3)cc1	UniProtKB P19643	pIC50	6.30
O=c1cc(O)c2ccc(OCc3ccccc3)cc2o1	UniProtKB P19643	pIC50	5.80
O=c1ccoc2cc(OCc3ccccc3)ccc12	UniProtKB P19643	pIC50	5.98
O=C1CCc2ccc(OCc3ccccc3)cc2N1	UniProtKB P19643	pIC50	5.98
O=C1OCc2ccc(OCc3ccccc3)cc21	UniProtKB P19643	pIC50	6.63

(I) CC1C(=O)Nc2cc(OCc3ccccc3)ccc2C1C (configuration not stated)
(II) O=c1ccc2ccccc2o1 [COUMARIN]
# return whichever of I and II has the smaller pIC50 // respond with label for picked entry
II
(II: 4.92, I: 6.20)
